src = patent US20210171640A1

Molecular target: T1, human VISTA expressed on cells (human, UniProt Q9H7M9 33-295)
T1 sequence: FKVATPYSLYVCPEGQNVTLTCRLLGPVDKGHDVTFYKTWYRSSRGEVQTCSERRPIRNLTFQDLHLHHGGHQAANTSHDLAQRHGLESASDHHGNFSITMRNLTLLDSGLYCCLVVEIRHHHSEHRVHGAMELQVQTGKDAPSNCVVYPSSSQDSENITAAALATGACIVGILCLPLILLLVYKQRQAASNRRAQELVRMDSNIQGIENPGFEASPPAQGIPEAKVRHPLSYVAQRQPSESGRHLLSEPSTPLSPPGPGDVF
Assay: cell-based or functional assay
This section presents binders with their documented EC50 IFNγ production, MLR values.
readout_kind: EC50 IFNγ production, MLR (mg/L)

• VSTB53 (antibody, human IgG1, kappa, V domains shown) VH: QVQLVQSGAEVKKPGASVKVSCKASGYTFTHYTIHWVRQAPGQGLEWMGYIIPSSGYSEYNQKFKDRVTMTRDTSTSTVYMELSSLRSEDTAVYYCARGAYDDYYDYYAMDYWGQGTLVTVSS VL: DIVMTQSPLSLPVTPGEPASISCRSSQTIVHSNGNTYLEWYLQKPGQSPQLLIYKVSNRFSGVPDRFSGSGSGTDFTLKISRVEAEDVGVYYCFQASHVPWTFGQGTKLEIKR = 1.88
• VSTB60 (antibody, human IgG1, kappa, V domains shown) VH: QVQLVQSGSELKKPGASVKVSCKASGYTFTNYGMTWVRQAPGQGLEWMGWINTYTGESTYADDFKGRFVFSLDTSVSTAYLQICSLKAEDTAVYYCARDYYGIYVSAYWGQGTLVTVSS VL: DIVMTQTPLSLSVTPGQPASISCRASESVDNYANSFMHWYLQKPGQSPQLLIYRASNLESGVPDRFSGSGSGTDFTLKISRVEAEDVGVYYCQQSHEDPYTFGQGTKLEIKR = 2.48
